Hello, the source for this data is ChEMBL document CHEMBL4261538, in case you need it.

System: Bacillus subtilis
methodSummary: Antibacterial activity against Bacillus subtilis at 25 ug/ml incubated for 24 hrs by agar well diffusion method
Assay type: functional
testContext: read-out: DIZ
metric: zone of inhibition at 25 µg/mL (mm)

C[C@H](N)C(=O)Oc1ccc2c(=O)c3ccccc3oc2c1.Cl | 11
N[C@@H](Cc1c[nH]c2ccccc12)C(=O)O | 4
CSCC[C@H](NC(=O)OC(C)(C)C)C(=O)Oc1ccc2c(=O)c3ccccc3oc2c1 | 13
Cl.O=C(Oc1ccc2c(=O)c3ccccc3oc2c1)[C@@H]1CCCN1 | 18
CC(C)(C)OC(=O)N[C@@H](Cc1ccccc1)C(=O)Oc1ccc2c(=O)c3ccccc3oc2c1 | 17
CC(C)(C)OC(=O)N[C@@H](CS)C(=O)Oc1ccc2c(=O)c3ccccc3oc2c1 | 20
CC(C)(C)OC(=O)NCC(=O)Oc1ccc2c(=O)c3ccccc3oc2c1 | 6
Cl.N[C@@H](Cc1c[nH]c2ccccc12)C(=O)Oc1ccc2c(=O)c3ccccc3oc2c1 | 26
CC(C)(C)OC(=O)N[C@@H](Cc1c[nH]c2ccccc12)C(=O)Oc1ccc2c(=O)c3ccccc3oc2c1 | 23

----------
System: Escherichia coli
methodSummary: Antibacterial activity against Escherichia coli at 75 ug/ml incubated for 24 hrs by agar well diffusion method
Type: functional
testContext: read-out: DIZ
metric: zone of inhibition at 75 µg/mL (mm)

CC(C)(C)OC(=O)N[C@@H](CS)C(=O)Oc1ccc2c(=O)c3ccccc3oc2c1 | 30
CC(C)[C@H](NC(=O)OC(C)(C)C)C(=O)Oc1ccc2c(=O)c3ccccc3oc2c1 | 18
CC(C)(C)OC(=O)NCC(=O)Oc1ccc2c(=O)c3ccccc3oc2c1 | 16
CC(C)(C)OC(=O)N[C@@H](Cc1ccccc1)C(=O)Oc1ccc2c(=O)c3ccccc3oc2c1 | 32
C[C@H](NC(=O)OC(C)(C)C)C(=O)Oc1ccc2c(=O)c3ccccc3oc2c1 | 20
CC(C)(C)OC(=O)N[C@@H](Cc1c[nH]c2ccccc12)C(=O)Oc1ccc2c(=O)c3ccccc3oc2c1 | 37
CSCC[C@H](NC(=O)OC(C)(C)C)C(=O)Oc1ccc2c(=O)c3ccccc3oc2c1 | 25
Cl.N[C@@H](Cc1ccc(O)cc1)C(=O)Oc1ccc2c(=O)c3ccccc3oc2c1 | 34
CC[C@H](C)[C@H](NC(=O)OC(C)(C)C)C(=O)Oc1ccc2c(=O)c3ccccc3oc2c1 | 19
CC(C)(C)OC(=O)N[C@@H](Cc1ccc(O)cc1)C(=O)Oc1ccc2c(=O)c3ccccc3oc2c1 | 33
CC(C)(C)OC(=O)N1CCC[C@H]1C(=O)Oc1ccc2c(=O)c3ccccc3oc2c1 | 31
O=c1c2ccccc2oc2cc(O)ccc12 | 11
CC(C)[C@H](N)C(=O)Oc1ccc2c(=O)c3ccccc3oc2c1.Cl | 19
N[C@@H](Cc1c[nH]c2ccccc12)C(=O)O [TRYPTOPHAN] | 14

----------
Test system: Staphylococcus aureus
methodSummary: Antibacterial activity against Staphylococcus aureus at 25 ug/ml incubated for 24 hrs by agar well diffusion method
Type: functional
testContext: read-out: DIZ
metric: zone of inhibition at 25 µg/mL (mm)

Cl.N[C@@H](Cc1ccccc1)C(=O)Oc1ccc2c(=O)c3ccccc3oc2c1 | 22
CC(C)(C)OC(=O)NCC(=O)Oc1ccc2c(=O)c3ccccc3oc2c1 | 7
CC(C)(C)OC(=O)N[C@@H](CS)C(=O)Oc1ccc2c(=O)c3ccccc3oc2c1 | 20
CSCC[C@H](N)C(=O)Oc1ccc2c(=O)c3ccccc3oc2c1.Cl | 17
CC(C)(C)OC(=O)N1CCC[C@H]1C(=O)Oc1ccc2c(=O)c3ccccc3oc2c1 | 17
N[C@@H](Cc1ccc(O)cc1)C(=O)O [TYROSINE] | 4
C[C@H](NC(=O)OC(C)(C)C)C(=O)Oc1ccc2c(=O)c3ccccc3oc2c1 | 6
CSCC[C@H](NC(=O)OC(C)(C)C)C(=O)Oc1ccc2c(=O)c3ccccc3oc2c1 | 15
CC(C)[C@H](N)C(=O)Oc1ccc2c(=O)c3ccccc3oc2c1.Cl | 14
Cl.N[C@@H](CS)C(=O)Oc1ccc2c(=O)c3ccccc3oc2c1 | 20

----------
System: Fusarium oxysporum
methodSummary: Antifungal activity against Fusarium oxysporum incubated for 48 to 72 hrs by microdilution method
Assay type: functional
metric: MIC

CC(C)(C)OC(=O)N[C@@H](Cc1c[nH]c2ccccc12)C(=O)Oc1ccc2c(=O)c3ccccc3oc2c1 | 21 µg/mL
CC(C)(C)OC(=O)N[C@@H](Cc1ccccc1)C(=O)Oc1ccc2c(=O)c3ccccc3oc2c1 | 27 µg/mL
CC(C)(C)OC(=O)N[C@@H](Cc1ccc(O)cc1)C(=O)Oc1ccc2c(=O)c3ccccc3oc2c1 | 22 µg/mL
CC(C)(C)OC(=O)N1CCC[C@H]1C(=O)Oc1ccc2c(=O)c3ccccc3oc2c1 | 25 µg/mL

----------
System: Fusarium oxysporum
methodSummary: Antifungal activity against Fusarium oxysporum at 50 ug/ml incubated for 48 hrs by agar well diffusion method
Assay type: functional
testContext: read-out: DIZ
Assign label 1 to entries whose zone of inhibition at 50 µg/mL meets or exceeds 20 mm; assign label 0 to the rest.

C[C@H](N)C(=O)Oc1ccc2c(=O)c3ccccc3oc2c1.Cl | label 0
Cl.N[C@@H](Cc1c[nH]c2ccccc12)C(=O)Oc1ccc2c(=O)c3ccccc3oc2c1 | label 1
CC(C)[C@H](NC(=O)OC(C)(C)C)C(=O)Oc1ccc2c(=O)c3ccccc3oc2c1 | label 0
CC(C)(C)OC(=O)N1CCC[C@H]1C(=O)Oc1ccc2c(=O)c3ccccc3oc2c1 | label 1
CC(C)(C)OC(=O)N[C@@H](Cc1c[nH]c2ccccc12)C(=O)Oc1ccc2c(=O)c3ccccc3oc2c1 | label 1
CSCC[C@H](NC(=O)OC(C)(C)C)C(=O)Oc1ccc2c(=O)c3ccccc3oc2c1 | label 0
CC(C)(C)OC(=O)N[C@@H](Cc1ccccc1)C(=O)Oc1ccc2c(=O)c3ccccc3oc2c1 | label 1
Cl.N[C@@H](CS)C(=O)Oc1ccc2c(=O)c3ccccc3oc2c1 | label 1
CSCC[C@H](N)C(=O)Oc1ccc2c(=O)c3ccccc3oc2c1.Cl | label 0
N[C@@H](Cc1ccc(O)cc1)C(=O)O [TYROSINE] | label 0
Cl.O=C(Oc1ccc2c(=O)c3ccccc3oc2c1)[C@@H]1CCCN1 | label 1
CC(C)C[C@H](N)C(=O)Oc1ccc2c(=O)c3ccccc3oc2c1.Cl | label 0
CC(C)C[C@H](NC(=O)OC(C)(C)C)C(=O)Oc1ccc2c(=O)c3ccccc3oc2c1 | label 0
Cl.N[C@@H](Cc1ccc(O)cc1)C(=O)Oc1ccc2c(=O)c3ccccc3oc2c1 | label 1
CC(C)(C)OC(=O)NCC(=O)Oc1ccc2c(=O)c3ccccc3oc2c1 | label 0
CC[C@H](C)[C@H](N)C(=O)Oc1ccc2c(=O)c3ccccc3oc2c1.Cl | label 0
CC(C)(C)OC(=O)N[C@@H](Cc1ccc(O)cc1)C(=O)Oc1ccc2c(=O)c3ccccc3oc2c1 | label 1
Cl.N[C@@H](Cc1ccccc1)C(=O)Oc1ccc2c(=O)c3ccccc3oc2c1 | label 1

----------
Test system: Klebsiella pneumoniae
methodSummary: Antibacterial activity against Klebsiella pneumoniae at 75 ug/ml incubated for 24 hrs by agar well diffusion method
Format: functional
testContext: read-out: DIZ
metric: zone of inhibition at 75 µg/mL (mm)

N[C@@H](Cc1c[nH]c2ccccc12)C(=O)O [TRYPTOPHAN] | 13
CC(C)(C)OC(=O)N[C@@H](Cc1ccc(O)cc1)C(=O)Oc1ccc2c(=O)c3ccccc3oc2c1 | 30
CC(C)[C@H](N)C(=O)Oc1ccc2c(=O)c3ccccc3oc2c1.Cl | 21
CC(C)(C)OC(=O)N[C@@H](Cc1c[nH]c2ccccc12)C(=O)Oc1ccc2c(=O)c3ccccc3oc2c1 | 36
Cl.NCC(=O)Oc1ccc2c(=O)c3ccccc3oc2c1 | 27
C[C@H](N)C(=O)Oc1ccc2c(=O)c3ccccc3oc2c1.Cl | 23
CC(C)C[C@H](NC(=O)OC(C)(C)C)C(=O)Oc1ccc2c(=O)c3ccccc3oc2c1 | 14
CC(C)(C)OC(=O)N1CCC[C@H]1C(=O)Oc1ccc2c(=O)c3ccccc3oc2c1 | 27
CC(C)C[C@H](N)C(=O)Oc1ccc2c(=O)c3ccccc3oc2c1.Cl | 22
Cl.O=C(Oc1ccc2c(=O)c3ccccc3oc2c1)[C@@H]1CCCN1 | 33
CC[C@H](C)[C@H](NC(=O)OC(C)(C)C)C(=O)Oc1ccc2c(=O)c3ccccc3oc2c1 | 20
CC(C)(C)OC(=O)N[C@@H](Cc1ccccc1)C(=O)Oc1ccc2c(=O)c3ccccc3oc2c1 | 33
CC(C)(C)OC(=O)NCC(=O)Oc1ccc2c(=O)c3ccccc3oc2c1 | 17
CC[C@H](C)[C@H](N)C(=O)Oc1ccc2c(=O)c3ccccc3oc2c1.Cl | 18
CSCC[C@H](N)C(=O)Oc1ccc2c(=O)c3ccccc3oc2c1.Cl | 29
C[C@H](NC(=O)OC(C)(C)C)C(=O)Oc1ccc2c(=O)c3ccccc3oc2c1 | 19
Cl.N[C@@H](Cc1ccccc1)C(=O)Oc1ccc2c(=O)c3ccccc3oc2c1 | 34
CC(C)[C@H](NC(=O)OC(C)(C)C)C(=O)Oc1ccc2c(=O)c3ccccc3oc2c1 | 19
CSCC[C@H](NC(=O)OC(C)(C)C)C(=O)Oc1ccc2c(=O)c3ccccc3oc2c1 | 26
Cl.N[C@@H](Cc1ccc(O)cc1)C(=O)Oc1ccc2c(=O)c3ccccc3oc2c1 | 31
